Where a name gives a salt, the structure may show the parent alone.
Below is a list of entries, each paired with its recorded melting point value.

Clc1nc2c(c3c1nc(-c1ccccc1)n3CCC1CCNCC1)CCC2 (as salt: trifluoroacetate) ... 225 to 232 °C (dec.)

Query block: For the compound Clc1nc2ccccc2c2c1nc(-c1ccccc1)n2CC[C@@H]1CCCN1 (as salt: fumarate) (hydrate or solvate) , report melting point.
Result block: 261 to 272 °C (dec.)

Query block: For the compound CNC(=S)N1CCC(CCn2c(-c3ccccc3)nc3c(Cl)nc4ccccc4c32)CC1 , report melting point.
Result block: 215 to 220 °C (dec.)

Query block: For the compound Clc1nc2c(c3c1nc(-c1ccccc1)n3CCC1CCNCC1)CCCC2 (as salt: trifluoroacetate) , report melting point.
Result block: 215 to 221 °C (dec.)

Query block: For the compound CCOC(=O)N1CCC(CCn2cnc3c(Oc4ccccc4)nc4ccccc4c32)CC1 , report melting point.
Result block: 132 to 133 °C

Query block: For the compound CC(C)(C)OC(=O)N1CCC(CCn2c(-c3ccccc3)nc3c(Cl)nc4ccsc4c32)CC1 , report melting point.
Result block: 199 to 200 °C

Query block: For the compound Clc1nc2ccsc2c2c1nc(-c1ccccc1)n2CCC1CCNCC1 (as salt: trifluoroacetate) (hydrate or solvate) , report melting point.
Result block: 224 to 224.5 °C

Query block: For the compound CNc1nc2ccccc2c2c1nc(-c1ccccc1)n2CCC1CCN(C(=O)OC(C)(C)C)CC1 (hydrate or solvate) , report melting point.
Result block: 161 to 162 °C

Query block: For the compound Cc1ccc(S(=O)(=O)N2CCC(CCn3cnc4c(Oc5ccccc5)nc5ccccc5c43)CC2)cc1 , report melting point.
Result block: 201.5 to 202 °C

Query block: For the compound CC(C)(C)OC(=O)N1CCC(CCn2c(-c3ccccc3)nc3c(Cl)nc4c(c32)CCCC4)CC1 , report melting point.
Result block: 215 to 218 °C (dec.)
